testTarget: Bem1-2, P29366
Sequence (P29366 139-227): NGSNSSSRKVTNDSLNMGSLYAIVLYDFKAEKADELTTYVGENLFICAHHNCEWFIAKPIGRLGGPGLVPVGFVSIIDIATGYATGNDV
test: SPOT array
conditionContext: median of control spots 4347
measurementKind: SPOT intensity

HRRRRVFSIPSLKSI : 8
NFKRLLPRDPSEKSS : 11

(1) NPLPKEPRLPKRKVA
(2) LKVTPGRRAPTISKI
Data request: Lowest SPOT intensity? choose 1 or 2 Your answer should be the label of the entry you select.
Data returned: 1

(a) ILARAILTIPRVLDK
(b) GAGERPRLVPRPINV
Data request: Between a and b , whose recorded SPOT intensity is greater? Your answer should be the label of the entry you select.
Data returned: b
(b: 1, a: 0)

(I) SKIRPTPRKPSRMAT
(II) TPEIPPPLPPKIMVH
Data request: Between I and II , whose recorded SPOT intensity is greater? Your answer should be the label of the entry you select.
Data returned: I
(I: 50, II: 0)
